# TEST SYSTEM: T1, recombinant human EGFR extracellular domain with 6xHis (human, UniProt P00533 25-645)
# T1 construct: In-house produced; also called 6xHis EGFR ECD; soluble human EGFR ECD; not shown: 6xHis tag
# TEST PROTOCOL: SPR competition, competitor 1284
REPORTED ENDPOINT: % inhibition

I'd like to know its % inhibition. The binder in question is antibody 1284 (antibody, human IgG1, kappa, V domains shown, Chimeric IgG1 kappa) VH: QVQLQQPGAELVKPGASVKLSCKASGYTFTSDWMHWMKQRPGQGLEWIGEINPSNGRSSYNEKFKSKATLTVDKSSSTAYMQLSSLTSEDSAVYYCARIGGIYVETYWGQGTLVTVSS VL: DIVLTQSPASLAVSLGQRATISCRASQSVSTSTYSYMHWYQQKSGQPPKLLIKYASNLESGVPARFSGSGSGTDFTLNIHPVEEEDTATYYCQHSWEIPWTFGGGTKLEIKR
98%

Quick one: % inhibition for antibody 1257 (antibody, human IgG1, kappa, V domains shown, Chimeric IgG1 kappa) VH: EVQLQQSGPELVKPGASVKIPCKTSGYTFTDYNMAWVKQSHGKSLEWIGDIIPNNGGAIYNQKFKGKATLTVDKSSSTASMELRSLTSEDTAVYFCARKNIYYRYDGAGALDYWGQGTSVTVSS VL: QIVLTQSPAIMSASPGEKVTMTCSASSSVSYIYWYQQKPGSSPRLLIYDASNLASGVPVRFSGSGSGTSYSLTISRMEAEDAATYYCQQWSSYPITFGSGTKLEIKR ?
16%

Find the recorded % inhibition belonging to antibody 1320 (antibody, human IgG1, kappa, V domains shown, Chimeric IgG1 kappa) VH: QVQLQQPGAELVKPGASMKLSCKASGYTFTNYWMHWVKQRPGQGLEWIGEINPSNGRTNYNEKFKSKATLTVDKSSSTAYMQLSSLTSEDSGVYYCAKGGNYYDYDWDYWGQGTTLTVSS VL: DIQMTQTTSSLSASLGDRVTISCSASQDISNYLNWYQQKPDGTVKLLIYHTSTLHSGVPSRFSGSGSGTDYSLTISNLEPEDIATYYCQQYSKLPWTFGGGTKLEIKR and report it.
5%
